Just for reference, PubChem BioAssay (NCI) is where these values come from.

Hi there, I'd appreciate the recorded growth inhibition for every entry that follows.
Experiment: NCI Yeast Anticancer Drug Screen. Data for the mec2-1 strain (AID 157)
Conditions: S. cerevisiae mec2-1 strain, at 50.0 µM, hits give high values
This is part of a sample that, as a whole, favours compounds with a hit. Of some 79,000 tested, about 15% had one in any assay. Active and inactive are the calls of the source. Cut-off read from the data, not from the text of the source: active = growth inhibition above about 70%; inactive = the rest.

Known growth inhibition results, listed for orientation:
# compound, growth inhibition
rows = [
    ("CCN(CC)[Si](C)(C)C", "-0.2% (inactive)"),
    ("COc1cccc(/C=N\\c2nc(-c3ccccc3Cl)cs2)c1O", "5.15% (inactive)"),
    ("COC(=O)Nc1cc2c3c(c1)CCCN3CCC2", "-4.05% (inactive)"),
]

Batch of 3 compounds: report growth inhibition for each.
1. O=c1c2[nH]cnc2n(-c2ccccc2)c(=S)n1-c1ccccc1
2. CS(=O)(=O)Oc1ccc2cc(Br)ccc2c1
3. COc1ccc(/C=N/Nc2nc(C)c3c(n2)Nc2ccccc2NC3=O)cc1

1.8% (inactive)
-5.35% (inactive)
10.2% (inactive)

Batch of 6 compounds: report growth inhibition for each.
1. CCCc1nc(NC#N)nc(C(=O)NC23CC4CC(CC(C4)C2)C3)c1C
2. CCc1cn(C2CC(CO)C(CO)S2)c(=O)[nH]c1=O (stereo not drawn)
3. Cc1c2n(c(=O)[nH]c1=O)C1OC(CO)C(N=[N+]=[N-])C1O2 (stereo not drawn)
4. Cc1nc2c(N)cc(Cl)cc2[nH]1
5. CN(C)CCOC(=O)c1cccc(CCl)c1
6. COc1cccc(N=NN2CCCC2)c1

1. -13.2% (inactive)
2. -33% (inactive)
3. -15.9% (inactive)
4. 13.3% (inactive)
5. 6.3% (inactive)
6. 14.2% (inactive)

I would be grateful if you could share the reported growth inhibition for `COc1ccc2nccc(Cl)c2c1` .
12.3% (inactive)
